# tested_target: recombinant human PTP1B (Homo sapiens)
# Sequence (P18031 1-322 limits assumed): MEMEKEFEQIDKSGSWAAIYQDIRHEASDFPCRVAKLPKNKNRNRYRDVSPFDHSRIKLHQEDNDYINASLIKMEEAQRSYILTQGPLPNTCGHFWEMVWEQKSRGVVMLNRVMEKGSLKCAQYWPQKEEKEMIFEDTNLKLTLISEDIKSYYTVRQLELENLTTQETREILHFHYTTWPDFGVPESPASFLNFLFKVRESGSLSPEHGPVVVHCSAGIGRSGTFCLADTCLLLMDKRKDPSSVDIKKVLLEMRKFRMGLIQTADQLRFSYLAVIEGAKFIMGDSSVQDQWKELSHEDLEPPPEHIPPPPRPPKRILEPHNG
# assay_info: Microplate-based PTP1B inhibition assay (pNPP substrate)
# cond: n = 3; IC50 ± standard error; pH 7, 25 °C, 0.5 mM pNPP

[
  {
    "molecule": "CC1(C)CC[C@]2(C(=O)O)CC[C@]3(C)C(=CC[C@@H]4[C@@]5(C)C[C@@H](O)[C@H](O)C(C)(C)[C@@H]5CC[C@]43C)[C@@H]2C1 [Compound 13, Maslinic acid]",
    "tested_target": "recombinant human PTP1B (Homo sapiens)",
    "unit_of_measure": "nM",
    "IC50": 3210
  },
  {
    "molecule": "CC1C(C(=O)O)CCC2(C)CCC3(C)C(=CCC4C5(C)CC(O)C(OC(=O)C=Cc6ccc(O)cc6)C(C)(C)C5CCC43C)C12 (stereo not drawn) [Compound 18]",
    "tested_target": "recombinant human PTP1B (Homo sapiens)",
    "unit_of_measure": "nM",
    "IC50": 1600
  },
  {
    "molecule": "CC1(C)CC[C@]2(C(=O)O)CC[C@]3(C)C(=CC[C@@H]4[C@@]5(C)C[C@@H](O)[C@H](OC(=O)/C=C/c6ccc(O)cc6)C(C)(C)[C@@H]5CC[C@]43C)[C@@H]2C1 [Compound 17, 3-O-trans-p-coumaroyl-maslinic acid]",
    "tested_target": "recombinant human PTP1B (Homo sapiens)",
    "unit_of_measure": "nM",
    "IC50": 1080
  },
  {
    "molecule": "CC1(C)CC[C@]2(C(=O)O)CC[C@]3(C)C(=CC[C@@H]4[C@@]5(C)C[C@@H](O)[C@H](OC(=O)/C=C\\c6ccc(O)cc6)C(C)(C)[C@@H]5CC[C@]43C)[C@@H]2C1 [Compound 16, 3-O-cis-p-coumaroyl-maslinic acid]",
    "tested_target": "recombinant human PTP1B (Homo sapiens)",
    "unit_of_measure": "nM",
    "IC50": 460
  },
  {
    "molecule": "CC1(C)CC[C@]2(C(=O)O)CC[C@]3(C)C(=CC[C@@H]4[C@@]5(C)CC[C@@H](O)C(C)(C)[C@@H]5[C@H](O)C[C@]43C)[C@@H]2C1 [Compound 14, 3-epi-sumaresinolic acid]",
    "tested_target": "recombinant human PTP1B (Homo sapiens)",
    "unit_of_measure": "nM",
    "IC50": 2870
  },
  {
    "molecule": "CC1(C)CC[C@]2(C(=O)O)CC[C@]3(C)C(=CC[C@@H]4[C@@]5(C)CC[C@H](O)C(C)(C)[C@@H]5[C@H](O)C[C@]43C)[C@@H]2C1 [Compound 15, Sumaresinolic acid]",
    "tested_target": "recombinant human PTP1B (Homo sapiens)",
    "unit_of_measure": "nM",
    "IC50": 1840
  }
]
